Let's look at some compounds and their measured EC50.
- Target of assay: soluble Aβ oligomers (Human A 1-42) (Homo sapiens, UniProt P05067)
- Construct: Human A 1-42 (China Peptide); purchased China Peptide
- Sequence (P05067 672-713): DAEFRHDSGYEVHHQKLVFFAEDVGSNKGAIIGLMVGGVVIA
- Procedure details: Aβ aggregation assay (bis-ANS): reversal of aggregation of soluble Aβ oligomers
- Format: biochemical
- Conditions: Aβ oligomers induced with ZnSO4 (15 μM), bis-ANS fluorescence, compounds 0.1 to 120 μM for 30 min, pH 7.4; read-out: EC50 (μM), reversal of aggregation of soluble Aβ oligomers
Number in µM, nothing else.

Compound: CN(Cc1cn(CCCF)nn1)Cc1ccc2c(Cl)cc(Cl)c(O)c2n1
EC50 [µM]: 4.5
--
Compound: CN(Cc1cn(CCF)nn1)Cc1ccc2c(Cl)cc(Cl)c(O)c2n1
EC50 [µM]: 2.3
--
Compound: Oc1c(F)cc(I)c2cccnc12 [Compound 14, 7-fluoro-5-iodo-8-hydroxyquinoline]
EC50 [µM]: 2.3
--
Compound: CN(C)Cc1ccc2c(Cl)cc(Cl)c(O)c2n1 [PBT2, reference compound]
EC50 [µM]: 2

Which EC50 is listed for "Oc1c(I)cc(Cl)c2cccnc12" ?
1.8

* * *

- Target of assay: soluble Aβ oligomers (Human A 1-42) (Homo sapiens, UniProt P05067)
- Construct: Human A 1-42 (China Peptide); purchased China Peptide
- Procedure details: Aβ aggregation assay (bis-ANS): reversal of aggregation of soluble Aβ oligomers
- Format: biochemical
pEC50: −log10 of the molar value.
Result type: pEC50

So what's the measured pEC50 for this one? Oc1cccc2ccc(F)nc12 [Compound 5]
< 3.92
